Test system: Plasmodium berghei
Assay Notes: Screen against P. berghei liver stage (PbLuc), transformed with Luciferase, at 2uM
Type: functional, HepG2
Experimental Parameters: tested at 2 uM
In all, about 68,000 compounds went through this assay and about 2,700 (4%) showed an effect of 50% or more. The list comes from a sample in which strong results are over-represented; it also holds close analogues and randomly drawn compounds.
Observed Property: INHIBITION (%)
Reply with just the number (in %).

{"columns": ["Compound", "Observed Property", "Measurement Units", "Reported"],
 "data": [
  ["O=C(c1c[nH]c2ccccc2c1=O)N1CCSCC1", "INHIBITION", "%", 40.47],
  ["Cn1ccc(C(=O)NC2CCC23CCN(C(=O)c2ccncc2)CC3)c1 (stereo not drawn)", "INHIBITION", "%", -33.11],
  ["CCOc1ccccc1NC(=O)N(CCO)Cc1ccsc1", "INHIBITION", "%", 38.66],
  ["Cc1cc(C)n(CC2CN(Cc3nc(C4CC4)no3)CCO2)n1 (stereo not drawn)", "INHIBITION", "%", 37.31],
  ["CCCOc1cc(C)ccc1NC(=O)N(C)C", "INHIBITION", "%", -59.32],
  ["CCS(=O)(=O)c1ncc(CN(C)Cc2ccccc2Cl)n1CCOC", "INHIBITION", "%", -5.13],
  ["CC(C)C(O)C(C)(C)CNC(=O)NCc1ccc(-n2cncn2)cc1 (stereo not drawn)", "INHIBITION", "%", 53.19],
  ["CCCS(=O)(=O)N1CCOC2(CCCN(c3ccccn3)C2)C1 (stereo not drawn)", "INHIBITION", "%", 2.39],
  ["O=C(c1ccc(F)c(F)c1)N1CCC(Cn2cc(CO)nn2)CC1", "INHIBITION", "%", 20.91],
  ["CSC(C)(C)CNC(=O)NCc1cccc(-n2ccnc2)c1", "INHIBITION", "%", -27.12]
]}

// next item, INHIBITION requested
Please fill in: INHIBITION reported for CC(C(=O)Nc1nccs1)N1CCc2nn(C)c(=O)cc2C1 (stereo not drawn) = 16.82
